Hello, the source for this data is ChEMBL document CHEMBL1156829, in case you need it.

- protocolSummary: NOVARTIS: Cytotoxicity against human hepatocellular carcinoma cell line (Huh7)
- Format: toxicity, cell-based, Huh-7
- measurementContext: Huh7 cells (hepatocellular carcinoma cell line)
Reported CC50 by item:

| molecule | CC50 |
| --- | --- |
| CC(=O)Nc1cc(C(=O)Nc2ccc(C3=NCCN3)cc2)ccc1C(=O)Nc1ccc(C2=NCCN2)cc1 | > 100 µM |
| CC[n+]1c(/C=C/c2cc(Br)ccc2OC)ccc2ccccc21 | > 10 µM |
| N#CC1=C(N)Oc2c3c(c4ccccc4c2C1c1ccc(F)cc1)C(c1ccc(F)cc1)C(C#N)=C(N)O3 (configuration not stated) | 21.6 µM |
| CCCOC(=O)C1=C(C)NC2=C(C(=O)CC(c3ccc(OC)cc3)C2)C1c1ccc(Cl)cc1Cl (configuration not stated) | > 100 µM |
| COc1ccc(CC2NCC(O)C2OC(C)=O)cc1 (configuration not stated) | 8.11 µM |
| CSc1ccc(NC(=O)N2CCCn3cccc3C2c2ccc(C(F)(F)F)cc2)cc1 (configuration not stated) | > 100 µM |
| CCOC(=O)C1=C(C)NC2=C(C(=O)CC(c3ccc(OC)cc3)C2)C1c1cccs1 (configuration not stated) | > 100 µM |
| O=C(NCC1CCCO1)c1cnc(N2CCN(c3ncccn3)CC2)c2ccccc12 (configuration not stated) | > 10 µM |
| CC1(c2ccccc2)CC(c2ccccc2)=Nc2nonc2N1 (configuration not stated) | > 10 µM |
| COc1cc(C2CC(=O)NC3=C2C(=O)CC(c2ccccc2Cl)C3)ccc1O (configuration not stated) | > 100 µM |
| CCC(C)NC(=O)C1CSC(c2cccc(F)c2)N1C(=O)c1cc(OC)c(OC)c(OC)c1 (configuration not stated) | > 0.654 µM |
| Cn1c(=O)[nH]c2c(c1=O)n(C)c(=O)n2C | > 10 µM |
| O=C(Cn1c2ccccc2c(=O)c2ccccc21)Nc1ccc(Cl)cc1C(=O)c1ccccc1 | > 100 µM |
| CC(C)CCN(CCC(C)C)CC(O)Cn1c2ccc(Br)cc2c2cc(Br)ccc21 (configuration not stated) | > 100 µM |
| CC(C)(C)NCC(O)COc1cccc2oc3ccccc3c12 (configuration not stated) | > 10 µM |
| O=C(NC1CCN(CC(O)CN(Cc2ccccc2)S(=O)(=O)c2ccccc2)C1)c1ccsc1 (configuration not stated) | > 10 µM |
| CCCn1c(SCC(=O)Nc2ccccc2Cl)nc2c1c(=O)n(C)c(=O)n2C | > 10 µM |

====

- protocolSummary: NOVARTIS: Cytotoxicity against human hepatocellular carcinoma cell line (Huh7)
- Assay type: toxicity, cell-based, Huh-7
- measurementContext: Huh7 cells (hepatocellular carcinoma cell line)
quantity: CC50 (µM)

| compound | quantity | valueQualifier | experimentalValue |
| --- | --- | --- | --- |
| COc1ccc(Nc2c3c(nc4ccc(NC(=O)c5cc(=O)c6ccccc6o5)cc24)CCCC3)cc1OC | CC50 | = | 11.1 |
| O=C(c1ccc2ccccc2c1)N1CCc2ccccc21 | CC50 | > | 100 |
| Cc1ccc2nc3c(c(Nc4ccc(N(C)C)cc4)c2c1)CCC3 | CC50 | = | 19.8 |
| NC(=S)NN=C1c2ccccc2-c2nc3nonc3nc21 | CC50 | > | 10 |
| CCc1nc2nc(C)cc(NCCc3cccc(C)c3)n2n1 | CC50 | > | 100 |
| Oc1ccc(Br)c(C(Nc2ccccn2)c2ccc3cccnc3c2O)c1 (stereo unspecified) | CC50 | = | 15.7 |

====

- System: Plasmodium falciparum
- protocolSummary: NOVARTIS: Inhibition of Plasmodium falciparum 3D7 (drug-susceptible) proliferation in erythrocyte-based infection assay
- Type: functional, organism-based
- measurementContext: Plasmodium falciparum, 3D7
Each record here notes measured EC50.

| givenSmiles | testSystem | EC50 |
| --- | --- | --- |
| O=C(Cc1cccs1)N1CCC(n2c(Cc3ccc(F)cc3)nc3cccnc32)CC1 | Plasmodium falciparum | > 12500 nM |
| CCN(CC)S(=O)(=O)c1cc(S(=O)(=O)c2ccc(Cl)c(S(=O)(=O)N(CC)CC)c2)ccc1Cl | Plasmodium falciparum | > 927 nM |
| COc1ccccc1N(CN1C(=O)c2ccc(Br)cc2C1=O)C(C)=O | Plasmodium falciparum | > 1250 nM |

====

- protocolSummary: NOVARTIS: Cytotoxicity against human hepatocellular carcinoma cell line (Huh7)
- Format: toxicity, cell-based, Huh-7
- measurementContext: Huh7 cells (hepatocellular carcinoma cell line)
CC50 values by entry
quantity: CC50

| compound | quantity | experimentalValue |
| --- | --- | --- |
| CCC(c1nc2ccccc2c(=O)n1-c1cccc(Cl)c1)N(CCC(C)C)C(=O)COCc1ccccc1 (centres undefined) | CC50 | 3.91 µM |
| O=C(NCc1ccccc1)c1cnc(NCCCN2CCCC2)nc1NCCc1ccccc1 | CC50 | > 10 µM |
| CC(=O)c1cccc(S(=O)(=O)NCCCNc2nc3cc(C)cc(C)c3cc2C#N)c1 | CC50 | > 100 µM |
| O=C1c2ccccc2-c2nc3c(Cl)cc(C(F)(F)F)cc3nc21 | CC50 | > 10 µM |
| Cc1ccc(C=NNc2ncnc3nc[nH]c23)cc1 | CC50 | > 100 µM |
| COC(=O)c1c(-c2c(Cl)cccc2Cl)noc1C=CNc1ccc(Cl)cc1 | CC50 | > 100 µM |
| O=C1C2=C(Nc3ccccc3SC2c2ccc(OCc3ccccc3)cc2)c2ccccc21 (centres undefined) | CC50 | > 100 µM |
| CC(C)(C)c1ccc(/C=C/C(=O)NCc2ccco2)cc1 | CC50 | > 10 µM |
| COCCCNc1nc2nonc2nc1N(C)C1CCOCC1 | CC50 | > 10 µM |
| COc1cccc(CNC(=O)[C@@H]2CNC[C@H]2c2ccc(C(F)(F)F)cc2)c1 | CC50 | 23.8 µM |
| CCC(c1nc2ccccc2c(=O)n1-c1ccc(Br)cc1)N(CCc1ccccc1)C(=O)c1cccc(C(F)(F)F)c1 (centres undefined) | CC50 | > 10 µM |
| Cc1ccn2c(NC(C)(C)CC(C)(C)C)c(-c3ccccc3OC(=O)c3ccc(Cl)cc3Cl)nc2c1 | CC50 | > 10 µM |
| CC(=O)N(C1=C(N(C)C)C(=O)c2ccccc2C1=O)c1ccc(Cl)c(Cl)c1 | CC50 | 8.35 µM |
| CC(=O)NC(=Cc1ccc(OC(F)F)cc1)C(=O)O | CC50 | > 100 µM |

====

- System: Plasmodium falciparum
- protocolSummary: NOVARTIS: Inhibition of Plasmodium falciparum W2 (drug-resistant) proliferation in erythrocyte-based infection assay
- Assay type: functional, organism-based
- measurementContext: Plasmodium falciparum, W2; read-out: EC50
pEC50: −log10 of the molar value.
Each entry gets Condition not met if its pEC50 stays under 6, and Condition met if its pEC50 is 6 or above.

| molecule | assignedClass |
| --- | --- |
| CN(C)CCCNc1ncc(C(=O)NCCc2ccccc2)c(NCC2CCCCC2)n1 | Condition not met |
| CCCCCCC(NC(=O)OCc1ccccc1)S(=O)(=O)c1ccc(C)cc1 (centres undefined) | Condition not met |
| CCCCCCCC(O)(c1ccc(OCC)cc1)C(CN1CCCCC1)c1ccccc1 (centres undefined) | Condition met |
| CN(CCCNc1ccnc2cc(Cl)ccc12)C(=O)c1ccc(Cl)c(Cl)c1 | Condition met |
| O=C1CCC(=O)N1c1ccc(CSc2nc3ccccc3[nH]2)cc1 | Condition not met |
| Cc1ccc(C2(C)CC(C)(C)N(C(=O)Cc3ccccc3)c3ccc(C(c4ccccc4)(c4ccccc4)c4ccccc4)cc32)cc1 (centres undefined) | Condition not met |
| COc1cc(NC(C)CCCN(Cc2ccc(N(C)C)cc2)C(=O)c2ccc(F)cc2)c2ncccc2c1 (centres undefined) | Condition met |
| CN(C)c1ccc(/C=C/c2cccc(/C=C/c3ccc(N(C)C)cc3)[n+]2C)cc1 | Condition met |
| CN(c1ncnc2sc3c(c12)CCCC3)C1CCCCC1 | Condition met |
| CCCc1cc(-c2onc(C)c2-c2ccc(C(=O)OCC)o2)c(O)cc1OC | Condition met |
| COCCSc1nc2sc3c(c2c(=O)n1-c1ccc(OC)cc1)CCN(C)C3 | Condition not met |
| CCOc1ccc(N=C2NC(=O)SC2=C2C(=O)Nc3ccc(Br)cc32)cc1 | Condition not met |
| O=C(CCc1ccccc1)c1ccccc1OCC(O)CN1CCCCC1 (centres undefined) | Condition met |
| Cc1ccc(C(=O)NCCNC(=O)CN2CCOCC2)cc1 | Condition not met |
| CC[C@@H]1CN2CC[C@H]1C[C@H]2[C@H](O)c1ccnc2ccc(OC)cc12 | Condition met |
| COc1cccc(-c2ccc(O)c(CNCC3CCCCC3)c2)n1 | Condition met |
| Cc1cccnc1NC(c1ccc([N+](=O)[O-])cc1)c1ccc2cccnc2c1O (centres undefined) | Condition met |
| CN1CCN(c2nc(Nc3ccc(O)cc3)nc3ccccc23)CC1 | Condition met |
| COc1ccc(-c2cc(C(=O)NCc3cccnc3)no2)cc1OC | Condition not met |
| Cc1ccc(-c2nnc(NCc3ccccc3)c3ccccc23)cc1S(=O)(=O)NCC1CCCO1 (centres undefined) | Condition not met |
| O=C(COc1ccc(-c2ncccn2)cc1CN1CCCCCC1)NCc1ccccc1C(F)(F)F | Condition not met |
| CCn1c(SCCCCNC(=O)c2cc([N+](=O)[O-])cc([N+](=O)[O-])c2)nc(-c2ccc(C)cc2)c1-c1ccc(C)cc1 | Condition met |
| COc1cc(NC(=O)Cn2ccc3ccc([N+](=O)[O-])cc32)cc(OC)c1OC | Condition met |
| CCOC(=O)c1cc(-c2ccccc2)n(CCC(=O)Nc2ccccc2N2CCN(C)CC2)c1C | Condition met |
| COc1ccc(Nc2c3c(nc4ccc(NC(=O)c5cc(=O)c6ccccc6o5)cc24)CCCC3)cc1OC | Condition met |
| CCCCNCCN1CCN(c2ccc(OC)cc2)C[C@@H]1c1ccccc1 | Condition met |
